Record form. Attribute: inhibition of growth at 10 µM. Fill in for each entry.
test system: PC-3; test: Anticancer activity against human PC-3 cells assessed as cell growth inhibition at 10 uM incubated for 48 hrs by SRB assay relative to control; type: functional; details: read-out: GI
Kindly answer with a numeric value in %, unit omitted.

Notebook: "NS(=O)(=O)c1ccc(Nc2nc(N/N=C/c3c[nH]c4ccccc34)nc(Nc3ccccc3)n2)cc1" , inhibition of growth at 10 µM read as 73

Notebook: "NS(=O)(=O)c1ccc(Nc2nc(N/N=C/c3ccc(F)cc3)nc(Nc3ccccc3)n2)cc1" , inhibition of growth at 10 µM read as 60

Notebook: "Cc1nn(-c2ccccc2)cc1/C=N/Nc1nc(Nc2ccccc2)nc(Nc2ccc(S(N)(=O)=O)cc2)n1" , inhibition of growth at 10 µM read as 98

Notebook: "NS(=O)(=O)c1ccc(Nc2nc(N/N=C/c3cccc4ccccc34)nc(Nc3ccccc3)n2)cc1" , inhibition of growth at 10 µM read as 44

Notebook: "CCCCc1nc(/C=N/Nc2nc(Nc3ccccc3)nc(Nc3ccc(S(N)(=O)=O)cc3)n2)c(Cl)[nH]1" , inhibition of growth at 10 µM read as 17

Notebook: "COc1ccc(/C=N/Nc2nc(Nc3ccccc3)nc(Nc3ccc(S(N)(=O)=O)cc3)n2)cc1" , inhibition of growth at 10 µM read as 24

Notebook: "Cc1ccc(/C=N/Nc2nc(Nc3ccccc3)nc(Nc3ccc(S(N)(=O)=O)cc3)n2)cc1" , inhibition of growth at 10 µM read as 33

Notebook: "NS(=O)(=O)c1ccc(Nc2nc(N/N=C/c3ccc([N+](=O)[O-])cc3)nc(Nc3ccccc3)n2)cc1" , inhibition of growth at 10 µM read as 49

Notebook: "CN(C)c1ccc(/C=N/Nc2nc(Nc3ccccc3)nc(Nc3ccc(S(N)(=O)=O)cc3)n2)cc1" , inhibition of growth at 10 µM read as 38

Notebook: "NS(=O)(=O)c1ccc(Nc2nc(N/N=C/c3ccc(Cl)cc3)nc(Nc3ccccc3)n2)cc1" , inhibition of growth at 10 µM read as 48

Notebook: "NS(=O)(=O)c1ccc(Nc2nc(N/N=C/C=C/c3ccccc3)nc(Nc3ccccc3)n2)cc1" , inhibition of growth at 10 µM read as 52

Notebook: "NS(=O)(=O)c1ccc(Nc2nc(N/N=C/c3ccc4c(c3)OCO4)nc(Nc3ccccc3)n2)cc1" , inhibition of growth at 10 µM read as 40

Notebook: "NS(=O)(=O)c1ccc(Nc2nc(N/N=C/c3ccccn3)nc(Nc3ccccc3)n2)cc1" , inhibition of growth at 10 µM read as 107

Notebook: "NS(=O)(=O)c1ccc(Nc2nc(N/N=C/c3cccs3)nc(Nc3ccccc3)n2)cc1" , inhibition of growth at 10 µM read as 23

Notebook: "NS(=O)(=O)c1ccc(Nc2nc(N/N=C/c3ccc(C(F)(F)F)cc3)nc(Nc3ccccc3)n2)cc1" , inhibition of growth at 10 µM read as 85

Notebook: "NS(=O)(=O)c1ccc(Nc2nc(N/N=C/c3ccccc3)nc(Nc3ccccc3)n2)cc1" , inhibition of growth at 10 µM read as 31

----------
test system: U-251; test: Anticancer activity against human U-251 cells assessed as cell growth inhibition incubated for 48 hrs by SRB assay; type: functional
measure: GI50 (nM)
Kindly answer with a numeric value in nM, unit omitted.

Notebook: "O=c1[nH]cc(F)c(=O)[nH]1" , GI50 read as 920

Notebook: "NS(=O)(=O)c1ccc(Nc2nc(N/N=C/c3ccccn3)nc(Nc3ccccc3)n2)cc1" , GI50 read as 510

Notebook: "Cc1nn(-c2ccccc2)cc1/C=N/Nc1nc(Nc2ccccc2)nc(Nc2ccc(S(N)(=O)=O)cc2)n1" , GI50 read as 3650

Notebook: "NS(=O)(=O)c1ccc(Nc2nc(N/N=C/c3ccc(C(F)(F)F)cc3)nc(Nc3ccccc3)n2)cc1" , GI50 read as 2690

These measurements were taken from ChEMBL document CHEMBL5154747.
